# experimental-protocol: The drug is tested on WLS-240 corresponding to human gut metagenome with ENA study accession number: PRJEB37062 and ENA sample accession number: ERS12561773 for biotransformation under anaerobic condition. The drug concentrations were measured over 9 timepoints collected between 0 and 24 hours of incubation by liquid-chromatography-coupled mass spectrometry (LC–MS); further: call rule not given here
# experimental-conditions: 2 µM
measurement-kind: Bacterial Biotransformation

Example entries and their recorded answers appear below.
                                   compound            value_observed
0  CCOC(=O)[C@H](CCc1ccccc1)N[C@H]1CCc2ccccc2N(CC(=O)O)C1=O [BENAZEPRIL]      Compound metabolized
1  CC(C)c1nc(CN(C)C(=O)N[C@H](C(=O)N[C@@H](Cc2ccccc2)C[C@H](O)[C@H](Cc2ccccc2)NC(=O)OCc2cncs2)C(C)C)cs1 [RITONAVIR]      Compound metabolized
2  CN1C(=O)CC(C)(c2ccccc2)C1=O (stereo not drawn) [METHSUXIMIDE]      Compound metabolized
3  CNC(=C[N+](=O)[O-])NCCSCc1csc(CN(C)C)n1 [NIZATIDINE]  Compound NOT metabolized
4  CO[C@]12C[C@@H](COC(=O)c3cncc(Br)c3)CN(C)[C@@H]1Cc1cn(C)c3cccc2c13 [NICERGOLINE]  Compound NOT metabolized
5  CN1CCN(CC/C=C2/c3ccccc3Sc3ccc(S(=O)(=O)N(C)C)cc32)CC1 [THIOTHIXENE]      Compound metabolized

Please give Bacterial Biotransformation for each item listed below.
1. CNS(=O)(=O)Cc1ccc2[nH]cc(CCN(C)C)c2c1.O=C(O)CCC(=O)O [SUMATRIPTAN SUCCINATE]
2. CCCCc1nc(Cl)c(CO)n1Cc1ccc(-c2ccccc2-c2nn[nH]n2)cc1 [LOSARTAN]

1. Compound metabolized
2. Compound metabolized
